Settings: basic group
Label satisfied when pKa is at or above 6; anything below gets not satisfied.

Example entries and their recorded answers appear below.
Compound: C=C(C)C(=O)OCCNCC(C)C
Assigned Class: satisfied
--
Compound: CC1CCCN1C (configuration not stated)
Assigned Class: satisfied
--
Compound: COc1cc2c(cc1OC)[C@]13CCN4CC5=CCO[C@H]6CC(=O)N2[C@H]1C6[C@@]5(S(=O)(=O)[O-])C[C@H]43 (some centres not stated)
Assigned Class: satisfied
--
Compound: Cc1cccc(C)c1NC(=O)CNCC(C)C
Assigned Class: satisfied
--
Compound: Cc1ccccc1/C(=N\CCC[NH+](C)C)c1ccccc1N
Assigned Class: not satisfied
--
Compound: Cn1ccc(=O)c2ccccc21
Assigned Class: not satisfied
--
Compound: CN(C)CC(C)(C)CN
Assigned Class: satisfied
--
Compound: Cc1ccc2c(c1)NCC[NH2+]2
Assigned Class: not satisfied

Hi, just wondering whether CCCNc1ccccc1 shows pKa of 6 or higher.
not satisfied

Hi, just wondering whether CC(C)(C)NC1CCCCC1 shows pKa of 6 or higher.
satisfied

Hi, just wondering whether O=[N+]([O-])c1cccc(Nc2ccccc2)c1 shows pKa of 6 or higher.
not satisfied

Hi, just wondering whether COc1c(C)cccc1C(=O)N[C@@H]1C[C@H]2CC[C@@H](C1)N2Cc1ccccc1 shows pKa of 6 or higher.
satisfied

Hi, just wondering whether Cc1cc(-c2ccccc2)nn(C)/c1=N/CCN1CCOCC1 shows pKa of 6 or higher.
satisfied

The reported numbers originate from the pKa sets of Baltruschat and Czodrowski (2020).
